Target: T1, human ferroportin (SLC40A1) fused in frame with GFP, stably expressed in HEK293 cells (human, UniProt Q9NP59 1-571)
T1 sequence (looked up): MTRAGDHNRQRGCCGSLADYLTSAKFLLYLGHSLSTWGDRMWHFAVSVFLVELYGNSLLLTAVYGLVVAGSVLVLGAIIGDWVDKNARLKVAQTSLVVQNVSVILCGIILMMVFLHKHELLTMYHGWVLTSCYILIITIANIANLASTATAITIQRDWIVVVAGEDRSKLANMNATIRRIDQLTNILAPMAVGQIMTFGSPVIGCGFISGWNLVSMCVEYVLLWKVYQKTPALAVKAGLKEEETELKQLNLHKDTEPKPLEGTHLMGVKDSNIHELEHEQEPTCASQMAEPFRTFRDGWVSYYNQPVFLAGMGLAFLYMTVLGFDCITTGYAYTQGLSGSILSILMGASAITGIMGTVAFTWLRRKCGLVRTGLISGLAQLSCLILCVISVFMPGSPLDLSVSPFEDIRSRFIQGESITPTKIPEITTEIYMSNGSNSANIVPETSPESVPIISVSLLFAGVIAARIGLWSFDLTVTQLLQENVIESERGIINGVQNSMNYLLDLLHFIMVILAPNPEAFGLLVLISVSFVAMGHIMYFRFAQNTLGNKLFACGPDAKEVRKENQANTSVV
Test: cell-based or functional assay
* marks the point of attachment. Isovaleryl = CC(C)CC(=O)*
Form field: EC50 (nM) (n = 3) (one value per entry).

Worked cases, EC50 (nM) (n = 3) given:
binder: Isovaleryl-DTHFPCIKF-NH2 (SMILES CC[C@H](C)[C@H](NC(=O)[C@H](CS)NC(=O)[C@@H]1CCCN1C(=O)[C@H](Cc1ccccc1)NC(=O)[C@H](Cc1c[nH]cn1)NC(=O)[C@@H](NC(=O)[C@H](CC(=O)O)NC(=O)CC(C)C)[C@@H](C)O)C(=O)N[C@@H](CCCCN)C(=O)N[C@@H](Cc1ccccc1)C(N)=O) [Compound 291]
EC50 (nM) (n = 3): 7 nM
//
binder: H-DTHFPCIIK-NH2 (also: homodimer via disulfide between Cys6 of each monomer) [Compound 318]
EC50 (nM) (n = 3): > 300 nM
//
binder: H-DTHFPCIKFF-NH2 [Compound 297]
EC50 (nM) (n = 3): > 300 nM

Record request: EC50 (nM) (n = 3) value, item H-DTHFPCIF-NH2 [Compound 293]
> 1000 nM
